- assay-target: human GLP-1 receptor (human, UniProt P43220 24-463)
- assay-info: cell-based or functional assay
Numbered stars: 1 amine (or outer) side, 2 acyl side, 3 side chain; on linkers, the order of the positions; unused ones are H or OH. Square brackets hold non-standard residues; d marks the D form. Side chains are listed from the residue outwards. Ends that are not written are not given here. * marks the point of attachment. Dodecanoyl(12-OPh(4-COOH)) = O=C(O)c1ccc(OCCCCCCCCCCCC(=O)*)cc1; Decanoyl(10-(4-HOOC-PhO)) = O=C(O)c1ccc(OCCCCCCCCCC(=O)*)cc1; γGlu = O=C(O)[C@H](CCC(=O)[*:2])N[*:1]; C14 diacid = O=C(O)CCCCCCCCCCCCC(=O)*; AEEA = NCCOCCOCC(=O)O; Aib = CC(C)(N)C(=O)O
property: EC50/pM (in vitro potency, cAMP formation, AlphaScreen)

H[Aib]EGTFTSDVSSYLEK([AEEA-AEEA-γGlu-C14 diacid])QAVRK([AEEA-AEEA-γGlu-C14 diacid])FIAWLVRG
242 pM
HAEGTFTSDVSSYLEGQAVRK([AEEA-AEEA-γGlu-C14 diacid])FIAHLVQGRK([AEEA-AEEA-γGlu-C14 diacid]) (also called 16)
21 pM
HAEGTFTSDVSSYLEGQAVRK([AEEA-AEEA-γGlu-Decanoyl(10-(4-HOOC-PhO))])FIEWLVQGK([AEEA-AEEA-γGlu-Decanoyl(10-(4-HOOC-PhO))])GE (also called 13)
79 pM
H[Aib]EGTK([AEEA-AEEA-γGlu-C14 diacid])TSDVSSYLEEQAARK([AEEA-AEEA-γGlu-C14 diacid])FIAHLVQGRG (also called 18)
3020 pM
HAEGTFTSDVSSYLEEQK([AEEA-AEEA-γGlu-C14 diacid])VRK([AEEA-AEEA-γGlu-C14 diacid])FIAHLVRGRG (also called 24)
70 pM
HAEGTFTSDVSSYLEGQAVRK([AEEA-AEEA-γGlu-γGlu-Decanoyl(10-(4-HOOC-PhO))])FIAWLVQGK([AEEA-AEEA-γGlu-γGlu-Decanoyl(10-(4-HOOC-PhO))])G (also called 23)
140 pM
HAEGTFTSDVSSYLEEQAARK([AEEA-AEEA-γGlu-Decanoyl(10-(4-HOOC-PhO))])FIEWLVRGK([AEEA-AEEA-γGlu-Decanoyl(10-(4-HOOC-PhO))])GEG
43 pM
HAEGTFTSDVSSYLEEQK([AEEA-AEEA-γGlu-Decanoyl(10-(4-HOOC-PhO))])ARK([AEEA-AEEA-γGlu-Decanoyl(10-(4-HOOC-PhO))])FIAHLVG (also called 25)
380 pM
H[Aib]EGTFTSDVSSYLEK([AEEA-AEEA-γGlu-C14 diacid])QAARK([AEEA-AEEA-γGlu-C14 diacid])FIAHLVG (also called 19)
52 pM
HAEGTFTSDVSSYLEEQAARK([AEEA-AEEA-γGlu-Dodecanoyl(12-OPh(4-COOH))])FIEWLVRGK([AEEA-AEEA-γGlu-Dodecanoyl(12-OPh(4-COOH))])GEG (also called 32)
76 pM
HAEGTFTSDVSSYLEEEAVRK([AEEA-AEEA-γGlu-C14 diacid])FIAHLVQGRK([AEEA-AEEA-γGlu-C14 diacid]) (also called 17)
17 pM
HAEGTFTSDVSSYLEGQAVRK([AEEA-AEEA-γGlu-Decanoyl(10-(4-HOOC-PhO))])FIEWLVRGK([AEEA-AEEA-γGlu-Decanoyl(10-(4-HOOC-PhO))])GQ (also called 12)
41 pM
H[Aib]EGTFTSDVSSYLEK([AEEA-AEEA-γGlu-C14 diacid])QAVRK([AEEA-AEEA-γGlu-C14 diacid])FIAHLVRGRG
9 pM
H[Aib]EGTFTSDVSSYLEGQAVRK([AEEA-AEEA-γGlu-C14 diacid])FIAHLVQGRK([AEEA-AEEA-γGlu-C14 diacid]) (also called 15)
5 pM
HAEGTFTSDVSSYLEEQK([AEEA-AEEA-γGlu-C14 diacid])VRK([AEEA-AEEA-γGlu-C14 diacid])FIAWLVG (also called 27)
835 pM
